These entries and their values trace back to paper PMC8493801.

Entries with their measured IC50, system human ABCB1-gene transfected L5178Y subline (MDR):
Please state the figure in µM; there is no need to write the unit.

Example compounds with recorded IC50:
>  <compound>
CCC1CN(C)C2Cc3c([nH]c4ccccc34)C(=NNC(=O)Nc3ccc(Cl)cc3)CC1C2C(=O)OC (stereo not drawn) [Compound 28]

>  <IC50, µM>
5.21

$$$$
>  <compound>
CCC1CN(C)C2Cc3c([nH]c4ccccc34)C(=NNC(=O)Nc3ccccc3)CC1C2C(=O)OC (stereo not drawn) [Compound 25]

>  <IC50, µM>
10.8

$$$$
>  <compound>
CCC1CN(C)C2Cc3c([nH]c4ccccc34)C(=NN=Cc3ccc(C(F)(F)F)cc3)CC1C2C(=O)OC (stereo not drawn) [Compound 10]

>  <IC50, µM>
11.7

$$$$
>  <compound>
CCCC=NN=C1CC2C(CC)CN(C)C(Cc3c1[nH]c1ccccc31)C2C(=O)OC (stereo not drawn) [Compound 3]

>  <IC50, µM>
31.5

$$$$
>  <compound>
CCC1CN(C)C2Cc3c([nH]c4ccccc34)C(=NN=Cc3ccc(O)cc3)CC1C2C(=O)OC (stereo not drawn) [Compound 13]

>  <IC50, µM>
7.75

$$$$

Now look at this one.
Provide measured IC50 value, entry: CCC1CN(C)C2Cc3c([nH]c4ccccc34)C(=NNC(=O)Nc3ccc(Br)cc3)CC1C2C(=O)OC (stereo not drawn) [Compound 29] 7.4

---

Entries with their measured pIC50, system human ABCB1-gene transfected L5178Y subline (MDR):
Scale explanation: pIC50 corresponds to minus log10 of a concentration expressed in moles per litre.

Example compounds with recorded pIC50:
>  <compound>
CCC1CN(C)C2Cc3c([nH]c4ccccc34)C(=NN=Cc3c[nH]c4cc(Br)ccc34)CC1C2C(=O)OC (stereo not shown) [Compound 21]

>  <pIC50>
4.89

$$$$
>  <compound>
CCC1CN(C)C2Cc3c([nH]c4ccccc34)C(=NN=Cc3ccc(Br)cc3)CC1C2C(=O)OC (stereo not shown) [Compound 8]

>  <pIC50>
5.13

$$$$
>  <compound>
CCC1CN(C)C2Cc3c([nH]c4ccccc34)C(=NN=Cc3ccc(OCc4ccccc4)cc3)CC1C2C(=O)OC (stereo not shown) [Compound 16]

>  <pIC50>
5.23

$$$$

With human ABCB1-gene transfected L5178Y subline (MDR) as the test system, provide measured pIC50 for this compound: CCC1CN(C)C2Cc3c([nH]c4ccccc34)C(=NN=Cc3ccccc3Br)CC1C2C(=O)OC (stereo not shown) [Compound 4] 4.96

With human ABCB1-gene transfected L5178Y subline (MDR) as the test system, provide measured pIC50 for this compound: C=CCOc1ccc(C=NN=C2CC3C(CC)CN(C)C(Cc4c2[nH]c2ccccc42)C3C(=O)OC)cc1 (stereo not shown) [Compound 15] 5.19

With human ABCB1-gene transfected L5178Y subline (MDR) as the test system, provide measured pIC50 for this compound: CCC1CN(C)C2Cc3c([nH]c4ccccc34)C(=NN=Cc3ccc(OC(F)(F)F)cc3)CC1C2C(=O)OC (stereo not shown) [Compound 11] 5.08

With human ABCB1-gene transfected L5178Y subline (MDR) as the test system, provide measured pIC50 for this compound: CCC1CN(C)C2Cc3c([nH]c4ccccc34)C(=NN=Cc3cc(OC)c(OC)c(OC)c3)CC1C2C(=O)OC (stereo not shown) [Compound 17] 5.10

---

tested on: mouse embryonic fibroblasts (NIH/3T3); assay: MTT antiproliferative assay, non-cancer cells; format: cell-based; settings: non-cancer mouse embryonic fibroblasts, MTT; read-out: IC50 NIH/3T3 (C)
parameter: pIC50
Scale explanation: pIC50 corresponds to minus log10 of a concentration expressed in moles per litre.

With mouse embryonic fibroblasts (NIH/3T3) as the test system, provide measured pIC50 for this compound: N.N.[Cl][Pt][Cl] [Cisplatin, reference compound] 5.97

---

tested on: human ABCB1-gene transfected L5178Y subline (MDR)
parameter: IC50 (µM)
Please state the figure in µM; there is no need to write the unit.

Example compounds with recorded IC50:
>  <compound>
CCC1CN(C)C2Cc3c([nH]c4ccccc34)C(=NNC(=O)Nc3ccc(C(F)(F)F)cc3)CC1C2C(=O)OC (stereo not drawn)

>  <unit tag>
µM

>  <IC50>
6.48

$$$$
>  <compound>
CC[C@H]1CN(C)[C@H]2Cc3c([nH]c4ccccc34)C(=O)C[C@H]1C2C(=O)OC (stereo partly drawn)

>  <unit tag>
µM

>  <IC50>
23

$$$$
>  <compound>
CCC1CN(C)C2Cc3c([nH]c4ccccc34)C(=NN=Cc3cccc([N+](=O)[O-])c3)CC1C2C(=O)OC (stereo not drawn)

>  <unit tag>
µM

>  <IC50>
8.72

$$$$
>  <compound>
CCC1CN(C)C2Cc3c([nH]c4ccccc34)C(=NN=Cc3ccc(OC)cc3)CC1C2C(=O)OC (stereo not drawn)

>  <unit tag>
µM

>  <IC50>
8.64

$$$$
>  <compound>
CCC1CN(C)C2Cc3c([nH]c4ccccc34)C(=NN=Cc3c(O)ccc4ccccc34)CC1C2C(=O)OC (stereo not drawn)

>  <unit tag>
µM

>  <IC50>
12.9

$$$$

With human ABCB1-gene transfected L5178Y subline (MDR) as the test system, provide measured IC50 for this compound: CCC1CN(C)C2Cc3c([nH]c4ccccc34)C(=NNC(=O)NC(C)(C)C)CC1C2C(=O)OC (stereo not drawn) 12.3

With human ABCB1-gene transfected L5178Y subline (MDR) as the test system, provide measured IC50 for this compound: CCC1CN(C)C2Cc3c([nH]c4ccccc34)C(=NN=Cc3ccc(N(C)C)cc3)CC1C2C(=O)OC (stereo not drawn) 7.42

With human ABCB1-gene transfected L5178Y subline (MDR) as the test system, provide measured IC50 for this compound: CCC1CN(C)C2Cc3c([nH]c4ccccc34)C(=NNC(=O)NCCCc3ccccc3)CC1C2C(=O)OC (stereo not drawn) 4.46

With human ABCB1-gene transfected L5178Y subline (MDR) as the test system, provide measured IC50 for this compound: CCC1CN(C)C2Cc3c([nH]c4ccccc34)C(=NNC(=O)Nc3ccc(OC)cc3)CC1C2C(=O)OC (stereo not drawn) 6.37

With human ABCB1-gene transfected L5178Y subline (MDR) as the test system, provide measured IC50 for this compound: CCC1CN(C)C2Cc3c([nH]c4ccccc34)C(=NN=Cc3cccc(OC)c3)CC1C2C(=O)OC (stereo not drawn) 4.62

---

system: human ABCB1-gene transfected L5178Y subline (MDR)
Quick reference: IC50 of the listed items.
The reply should read as a number followed by its unit.

Example compounds with recorded IC50:
>  <compound>
CCCCCNC(=O)NN=C1CC2C(CC)CN(C)C(Cc3c1[nH]c1ccccc31)C2C(=O)OC (stereo not drawn) [Compound 22]

>  <parameter>
IC50

>  <recorded measurement>
4.28 µM

$$$$
>  <compound>
CCC1CN(C)C2Cc3c([nH]c4ccccc34)C(=NN=Cc3ccccc3O)CC1C2C(=O)OC (stereo not drawn) [Compound 5]

>  <parameter>
IC50

>  <recorded measurement>
5.96 µM

$$$$

Now look at this one.
With human ABCB1-gene transfected L5178Y subline (MDR) as the test system, provide measured IC50 for this compound: CCC1CN(C)C2Cc3c([nH]c4ccccc34)C(=NN=Cc3cc4ccccc4[nH]3)CC1C2C(=O)OC (stereo not drawn) [Compound 20] 8.73 µM

---

Entries with their measured IC50, system human ABCB1-gene transfected L5178Y subline (MDR):
Please state the figure in µM; there is no need to write the unit.

Example compounds with recorded IC50:
>  <compound>
CCC1CN(C)C2Cc3c([nH]c4ccccc34)C(=NN=Cc3ccc(Cl)cc3)CC1C2C(=O)OC (centres unmarked)

>  <IC50 (µM)>
6.57

$$$$
>  <compound>
CCC1CN(C)C2Cc3c([nH]c4ccccc34)C(=NNC(=O)Nc3ccc([N+](=O)[O-])cc3)CC1C2C(=O)OC (centres unmarked)

>  <IC50 (µM)>
4.83

$$$$
>  <compound>
CCC1CN(C)C2Cc3c([nH]c4ccccc34)C(=NNC(=O)Nc3ccc(C)cc3)CC1C2C(=O)OC (centres unmarked)

>  <IC50 (µM)>
8.22

$$$$
>  <compound>
CCC1CN(C)C2Cc3c([nH]c4ccccc34)C(=NN=Cc3ccc4ccccc4c3)CC1C2C(=O)OC (centres unmarked)

>  <IC50 (µM)>
9.58

$$$$

Now look at this one.
Provide measured IC50 value, entry: CCC1CN(C)C2Cc3c([nH]c4ccccc34)C(=NNC(=O)NC3CCCCC3)CC1C2C(=O)OC (centres unmarked) 5.69
